Sourced from ChEMBL document CHEMBL4373696

system: Beta-2 adrenergic receptor (Homo sapiens, UniProt P07550)
Sequence (P07550 whole entry): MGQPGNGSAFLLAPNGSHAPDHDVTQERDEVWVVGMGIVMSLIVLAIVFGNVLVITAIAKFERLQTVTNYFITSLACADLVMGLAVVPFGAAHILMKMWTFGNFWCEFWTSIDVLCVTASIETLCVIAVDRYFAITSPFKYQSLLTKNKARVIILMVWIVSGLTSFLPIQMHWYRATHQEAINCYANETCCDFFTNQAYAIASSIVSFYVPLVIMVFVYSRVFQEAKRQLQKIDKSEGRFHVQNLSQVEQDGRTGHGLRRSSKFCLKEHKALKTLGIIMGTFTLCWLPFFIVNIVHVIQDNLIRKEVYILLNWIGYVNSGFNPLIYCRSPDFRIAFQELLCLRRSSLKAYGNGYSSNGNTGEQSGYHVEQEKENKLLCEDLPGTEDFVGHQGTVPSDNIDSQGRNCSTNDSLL
experimental_details: Antagonist activity at beta2 adrenergic receptor (unknown origin) stably expressed in HEK293 cell membranes assessed as inhibition of isoproterenol-induced cAMP production preincubated for 15 mins followed by isoproterenol addition and measured after 30 mins by TR-FRET assay
Format: functional, cell-based
# log10(IC50) per record follows
The common logarithm of IC50 in nM is what is listed.

>  <smiles_representation>
CC(C)NC[C@H](O)COc1ccccc1CCCC(=O)NCCNC(=O)CCCc1ccccc1OC[C@@H](O)CNC(C)C

>  <value>
0.82

$$$$
>  <smiles_representation>
CC(C)NC[C@H](O)COc1ccccc1OCCOCCOCCOc1ccccc1OC[C@@H](O)CNC(C)C

>  <value>
1.87

$$$$
>  <smiles_representation>
CC(C)NC[C@H](O)COc1ccccc1CCCNC(=O)NCCCc1ccccc1

>  <value>
1.15

$$$$
>  <smiles_representation>
CC(C)NC[C@H](O)COc1ccccc1CC(=O)NCCNC(=O)Cc1ccccc1OC[C@@H](O)CNC(C)C

>  <value>
3.42

$$$$

Consider now this further compound.
Looking up `CC(C)NC[C@H](O)COc1ccccc1CCCCCCCCCCCCc1ccccc1OC[C@@H](O)CNC(C)C` , I see its log10(IC50) listed as 0.84

====

system: UniProt:P07550
experimental_details: Antagonist activity at beta2 adrenergic receptor (unknown origin) expressed in HEK293 cell assessed as inhibition of isoproterenol-induced cAMP production preincubated for 15 mins followed by isoproterenol addition and measured after 15 mins
Type: functional, cell-based
As shown below, each of these compounds has a reported pIC50 value.
To interpret pIC50, take it as minus log10 of a concentration measured in moles per litre.

>  <smiles_representation>
CC(C)NC[C@H](O)COc1ccccc1CCn1cc(CNCc2cn(CCc3ccccc3OC[C@@H](O)CNC(C)C)nn2)nn1

>  <value>
8.69

$$$$
>  <smiles_representation>
CC(C)NC[C@H](O)COc1ccccc1CCCCNC(=O)NCCCCc1ccccc1OC[C@@H](O)CNC(C)C

>  <value>
8.75

$$$$
>  <smiles_representation>
CC(C)NC[C@H](O)COc1ccccc1-n1cc(CNCc2cn(-c3ccccc3OC[C@@H](O)CNC(C)C)nn2)nn1

>  <value>
7.92

$$$$
>  <smiles_representation>
CC(C)NC[C@H](O)COc1ccccc1CCCCCCCCCCc1ccccc1OC[C@@H](O)CNC(C)C

>  <value>
7.86

$$$$
>  <smiles_representation>
CC(C)NC[C@H](O)COc1ccccc1CCCCCCCCc1ccccc1OC[C@@H](O)CNC(C)C

>  <value>
8.28

$$$$

For the next question, use this compound.
Lab note: measured pIC50 of `CC(C)NC[C@H](O)COc1ccccc1CC(=O)NCCNC(=O)Cc1ccccc1OC[C@@H](O)CNC(C)C` was 6.67

====

system: Beta-2 adrenergic receptor (Homo sapiens, UniProt P07550)
experimental_details: Antagonist activity at beta2 adrenergic receptor (unknown origin) stably expressed in HEK293 cell membranes assessed as inhibition of isoproterenol-induced cAMP production preincubated for 15 mins followed by isoproterenol addition and measured after 30 mins by TR-FRET assay
Type: functional, cell-based
Recorded IC50, one value per entry.
Report the value in nM with no unit label.

Some compounds with recorded IC50:
>  <smiles_representation>
CC(C)NC[C@H](O)COc1ccccc1CCCC(=O)NCCCNC(=O)CCCc1ccccc1OC[C@@H](O)CNC(C)C

>  <readout_unit>
nM

>  <value>
6.46

$$$$
>  <smiles_representation>
CC(C)NC[C@H](O)COc1ccccc1Cn1cc(CNCc2cn(Cc3ccccc3OC[C@@H](O)CNC(C)C)nn2)nn1

>  <readout_unit>
nM

>  <value>
64.6

$$$$
>  <smiles_representation>
CCCNC(=O)NCCCc1ccccc1OC[C@@H](O)CNC(C)C

>  <readout_unit>
nM

>  <value>
85.1

$$$$
>  <smiles_representation>
CC(C)NC[C@H](O)COc1ccccc1CCCCNC(=O)NCCCCc1ccccc1OC[C@@H](O)CNC(C)C

>  <readout_unit>
nM

>  <value>
1.58

$$$$

Record `CCCC(=O)NCCNC(=O)CCCc1ccccc1OC[C@@H](O)CNC(C)C` . Reported IC50: 64.6

Measured IC50, `CC(C)NC[C@H](O)COc1ccccc1CCCC(=O)NCCNC(=O)CCCc1ccccc1` : 5.89

`CC(C)NC[C@H](O)COc1ccccc1CCNC(=O)NCCc1ccccc1OC[C@@H](O)CNC(C)C` yielded IC50 of 16.2

`CC(C)NC[C@H](O)COc1ccccc1CCCCCCc1ccccc1OC[C@@H](O)CNC(C)C` has a reported IC50 of 3.8

Short answer for `CC(C)NC[C@H](O)COc1ccccc1CCCC(=O)NCCCCNC(=O)CCCc1ccccc1OC[C@@H](O)CNC(C)C` : IC50 was 11.2

====

system: UniProt:P07550
experimental_details: Antagonist activity at beta2 adrenergic receptor (unknown origin) stably expressed in HEK293 cell membranes assessed as inhibition of isoproterenol-induced cAMP production preincubated for 15 mins followed by isoproterenol addition and measured after 30 mins by TR-FRET assay
Type: functional, cell-based
observable: IC50 (nM)
Write it as a number; the unit nM goes unstated.

>  <smiles_representation>
CC(C)NC[C@H](O)COc1ccccc1CCC(=O)NCCNC(=O)CCc1ccccc1OC[C@@H](O)CNC(C)C

>  <value>
75.9

$$$$
>  <smiles_representation>
CC(C)NC[C@@H](O)COc1ccccc1CCCC(=O)NCCNC(=O)CCCc1ccccc1OC[C@H](O)CNC(C)C

>  <value>
214

$$$$

Record `CC(C)NC[C@H](O)COc1ccccc1CCCCCCCCc1ccccc1OC[C@@H](O)CNC(C)C` , field IC50: 2.34

So for `CC(C)NC[C@H](O)COc1ccccc1CCC(=O)NCCCNC(=O)CCc1ccccc1OC[C@@H](O)CNC(C)C` , the logged IC50 turned out to be 8.32

====

Collected pIC50 values appear next to each entry.
system: Beta-2 adrenergic receptor (Homo sapiens)
experimental_details: Antagonist activity at beta2 adrenergic receptor (unknown origin) stably expressed in HEK293 cell membranes assessed as inhibition of isoproterenol-induced cAMP production preincubated for 15 mins followed by isoproterenol addition and measured after 30 mins by TR-FRET assay
Format: functional, cell-based
Recall that pIC50 is obtained by taking minus log10 of the concentration measured in molar.

Here's what some known entries look like.
>  <smiles_representation>
CC(C)NC[C@H](O)COc1ccccc1CCn1cc(CNCc2cn(CCc3ccccc3OC[C@@H](O)CNC(C)C)nn2)nn1

>  <pIC50>
8.33

$$$$
>  <smiles_representation>
CC(C)NC[C@H](O)COc1ccccc1CCCCCCCCCCc1ccccc1OC[C@@H](O)CNC(C)C

>  <pIC50>
8.42

$$$$
>  <smiles_representation>
COc1ccccc1CCCC(=O)NCCNC(=O)CCCc1ccccc1OC[C@@H](O)CNC(C)C

>  <pIC50>
8.41

$$$$
>  <smiles_representation>
CC(C)NC[C@H](O)COc1ccccc1CCCCCNC(=O)NCCCCCc1ccccc1OC[C@@H](O)CNC(C)C

>  <pIC50>
8.76

$$$$
>  <smiles_representation>
CC(C)NC[C@H](O)COc1ccccc1CCCNC(=O)NCCCc1ccccc1OC[C@@H](O)CNC(C)C

>  <pIC50>
8.12

$$$$
>  <smiles_representation>
COc1ccccc1CCCNC(=O)NCCCc1ccccc1OC[C@@H](O)CNC(C)C

>  <pIC50>
7.86

$$$$

Entry `CC(C)NC[C@H](O)COc1ccccc1-n1cc(CNCc2cn(-c3ccccc3OC[C@@H](O)CNC(C)C)nn2)nn1` : pIC50 on Beta-2 adrenergic receptor (Homo sapiens) = 6.77

// pIC50 (Beta-2 adrenergic receptor (Homo sapiens)) for `CC(C)NC[C@H](O)COc1ccccc1OCCOCCOc1ccccc1OC[C@@H](O)CNC(C)C` = 7.33

Entry `CC(C)NC[C@H](O)COc1ccccc1CCCn1cc(CNCc2cn(CCCc3ccccc3OC[C@@H](O)CNC(C)C)nn2)nn1` under Beta-2 adrenergic receptor (Homo sapiens) had pIC50 of 8.54

====

system: Beta-1 adrenergic receptor (Homo sapiens, UniProt P08588)
Sequence (P08588 whole entry): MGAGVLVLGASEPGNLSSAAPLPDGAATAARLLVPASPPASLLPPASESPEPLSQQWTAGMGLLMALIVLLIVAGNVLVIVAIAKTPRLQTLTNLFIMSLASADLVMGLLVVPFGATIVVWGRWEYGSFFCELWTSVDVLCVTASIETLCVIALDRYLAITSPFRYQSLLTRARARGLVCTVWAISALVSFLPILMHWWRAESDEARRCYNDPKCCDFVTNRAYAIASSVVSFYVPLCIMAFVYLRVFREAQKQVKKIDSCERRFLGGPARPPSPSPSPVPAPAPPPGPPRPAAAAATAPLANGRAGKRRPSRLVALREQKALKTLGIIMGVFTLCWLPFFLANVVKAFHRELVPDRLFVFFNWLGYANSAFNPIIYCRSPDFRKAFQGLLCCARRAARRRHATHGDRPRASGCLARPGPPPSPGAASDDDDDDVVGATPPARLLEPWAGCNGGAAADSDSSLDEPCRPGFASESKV
Measured pKi of individual entries
# pKi = -log10(concentration in molar units)

Recorded pKi, per entry:
>  <smiles_representation>
CC(C)NC[C@H](O)COc1ccccc1Cn1cc(CNCc2cn(Cc3ccccc3OC[C@@H](O)CNC(C)C)nn2)nn1

>  <value>
7.08

$$$$
>  <smiles_representation>
CC(C)NC[C@H](O)COc1ccccc1CCC(=O)NCCNC(=O)CCc1ccccc1OC[C@@H](O)CNC(C)C

>  <value>
6.57

$$$$
>  <smiles_representation>
CC(C)NC[C@H](O)COc1ccccc1CCCC(=O)NCCNC(=O)CCCc1ccccc1OC[C@@H](O)CNC(C)C

>  <value>
8.05

$$$$
>  <smiles_representation>
CC(C)NC[C@H](O)COc1ccccc1CCCCCCc1ccccc1OC[C@@H](O)CNC(C)C

>  <value>
8.19

$$$$
>  <smiles_representation>
CC(C)NC[C@H](O)COc1ccccc1CCNC(=O)NCCc1ccccc1OC[C@@H](O)CNC(C)C

>  <value>
7.71

$$$$

Entry `CC(C)NC[C@H](O)COc1ccccc1CCCNC(=O)NCCCc1ccccc1OC[C@@H](O)CNC(C)C` , tested on Beta-1 adrenergic receptor (Homo sapiens, UniProt P08588), has a reported pKi of 7.35

Param item: `CC(C)NC[C@H](O)COc1ccccc1CCCCCCCCCCc1ccccc1OC[C@@H](O)CNC(C)C` ; param system: Beta-1 adrenergic receptor (Homo sapiens, UniProt P08588); output pKi: 8.74

The compound `CC(C)NC[C@H](O)COc1ccccc1CCCCNC(=O)NCCCCc1ccccc1OC[C@@H](O)CNC(C)C` on Beta-1 adrenergic receptor (Homo sapiens, UniProt P08588): pKi was 8.40

// returns pKi for `CC(C)NC[C@H](O)COc1ccccc1CCCCCCCCCCCCc1ccccc1OC[C@@H](O)CNC(C)C` with Beta-1 adrenergic receptor (Homo sapiens, UniProt P08588); value = 8.90
